Below, each of the molecules is paired with its reported IC50 value.
- target.or.system: Avi-KRAS G12D (1-169) GppNHp/RAF1 RBD-3×FLAG (52-151) (Homo sapiens, UniProt P01116, G12D)
- Construct: 50 nM Avi-KRAS G12D (1-169) GppNHp/RAF1 RBD-3×FLAG (52-151)
- Sequence (P01116 1-169 isoform P01116-2 G12D limits assumed): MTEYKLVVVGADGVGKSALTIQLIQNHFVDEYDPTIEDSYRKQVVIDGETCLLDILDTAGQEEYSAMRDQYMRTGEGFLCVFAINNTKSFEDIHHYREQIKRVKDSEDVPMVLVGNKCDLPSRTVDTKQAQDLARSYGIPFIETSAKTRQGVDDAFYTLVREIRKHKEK
- test.protocol: Disrupting RAS-effector binding HTRF assay, Raf1 RBD-KRAS G12D-GppNHp
- measurement.parameters: PPI HTRF, 50 nM Avi-KRAS G12D GppNHp, compound titration 30-0.0045 μM; read-out: Raf1 RBD-KRAS G12D-GppNHp disruption
quantity.name: IC50

molecule: CCCc1nc(N2CC3CCC(C2)N3)c2cc(C(F)(F)F)c(-c3ccc(F)c4sc(N)c(C#N)c34)c(F)c2n1
quantity.name: IC50
result: 1000 to 10000 nM
//
molecule: N#Cc1c(N)sc2c(F)ccc(-c3c(C(F)(F)F)cc4c(N5CC6CCC(C5)N6)nc(OC[C@@H](O)CO)nc4c3F)c12
quantity.name: IC50
result: 100 to 1000 nM
//
molecule: N#Cc1c(N)sc2c(F)ccc(-c3c(C(F)(F)F)cc4c(N5CC6CCC(C5)N6)nc(OCC5CCOC5)nc4c3F)c12 (stereo not drawn)
quantity.name: IC50
result: 100 to 1000 nM
//
molecule: N#Cc1c(N)sc2c(F)ccc(-c3c(C(F)(F)F)cc4c(N5CC6CCC(C5)N6)nc(OC[C@H](O)CO)nc4c3F)c12
quantity.name: IC50
result: 100 to 1000 nM
//
molecule: N#Cc1c(N)sc2c(F)ccc(-c3c(C(F)(F)F)cc4c(N5CC6CCC(C5)N6)nc(N5CC[C@H](O)C5)nc4c3F)c12
quantity.name: IC50
result: 1000 to 10000 nM
//
molecule: CN1C[C@@H](COc2nc(N3CC4CCC(C3)N4)c3cc(C(F)(F)F)c(-c4ccc(F)c5sc(N)c(C#N)c45)c(F)c3n2)CC1=O
quantity.name: IC50
result: 100 to 1000 nM

###

- target.or.system: Avi-KRAS G12D (1-169) GppNHp/RAF1 RBD-3×FLAG (52-151) (Homo sapiens, UniProt P01116, G12D)
- Construct: 50 nM Avi-KRAS G12D (1-169) GppNHp/RAF1 RBD-3×FLAG (52-151)
- test.protocol: Disrupting RAS-effector binding HTRF assay, Raf1 RBD-KRAS G12D-GppNHp
- measurement.parameters: PPI HTRF, 50 nM Avi-KRAS G12D GppNHp, compound titration 30-0.0045 μM; read-out: Raf1 RBD-KRAS G12D-GppNHp disruption
pIC50: −log10 of the molar value.
Each entry below lists one item and its recorded pIC50 value.

compound: N#Cc1c(N)sc2c(F)ccc(-c3c(C(F)(F)F)cc4c(N5CC6CCC(C5)N6)nc(OCCCO)nc4c3F)c12
pIC50: 6.00 to 7.00
--
compound: CC(C)Oc1nc(N2CC3CCC(C2)N3)c2cc(C(F)(F)F)c(-c3ccc(F)c4sc(N)c(C#N)c34)c(F)c2n1
pIC50: 5.00 to 6.00
--
compound: CN(C)c1nc(N2C[C@H]3CC[C@@H](C2)N3)c2cc(C(F)(F)F)c(-c3ccc(F)c4sc(N)c(C#N)c34)c(F)c2n1
pIC50: 5.00 to 6.00
--
compound: CN1CCC(COc2nc(N3CC4CCC(C3)N4)c3cc(C(F)(F)F)c(-c4ccc(F)c5sc(N)c(C#N)c45)c(F)c3n2)C1=O (centres unmarked)
pIC50: 6.00 to 7.00
--
compound: N#Cc1c(N)sc2c(F)ccc(-c3c(C(F)(F)F)cc4c(N5CC6CCC(C5)N6)nc(OCCc5ccccc5)nc4c3F)c12
pIC50: 5.00 to 6.00
--
compound: CN1C(=O)CC[C@H]1COc1nc(N2CC3CCC(C2)N3)c2cc(C(F)(F)F)c(-c3ccc(F)c4sc(N)c(C#N)c34)c(F)c2n1
pIC50: 6.00 to 7.00
--
compound: N#Cc1c(N)sc2c(F)ccc(-c3c(C(F)(F)F)cc4c(N5CC6CCC(C5)N6)nc(OCCc5cnoc5)nc4c3F)c12
pIC50: 6.00 to 7.00
--
compound: N#Cc1c(N)sc2c(F)ccc(-c3c(C(F)(F)F)cc4c(N5CC6CCC(C5)N6)nc(OC5CC(O)C5)nc4c3F)c12 (centres unmarked) [Compound 12]
pIC50: 5.00 to 6.00
--
compound: N#Cc1c(N)sc2c(F)ccc(-c3c(C(F)(F)F)cc4c(N5CC6CCC(C5)N6)nc(OCCC5CCCO5)nc4c3F)c12 (centres unmarked)
pIC50: 6.00 to 7.00
--
compound: N#Cc1c(N)sc2c(F)ccc(-c3c(C(F)(F)F)cc4c(N5C[C@H]6CC[C@@H](C5)N6)ncnc4c3F)c12
pIC50: 5.00 to 6.00
--
compound: N#Cc1c(N)sc2c(F)ccc(-c3c(C(F)(F)F)cc4c(N5CC6CCC(C5)N6)nc(OC5CCC5)nc4c3F)c12
pIC50: 5.00 to 6.00
--
compound: CN(c1nc(OCC2CCOCC2)nc2c(F)c(-c3ccc(F)c4sc(N)c(C#N)c34)c(C(F)(F)F)cc12)[C@H]1CCCNC1
pIC50: < 5.00
--
compound: N#Cc1c(N)sc2c(F)ccc(-c3c(C(F)(F)F)cc4c(N5CC6CCC(C5)N6)nc(OCC5CCCCC5)nc4c3F)c12
pIC50: < 5.00
--
compound: N#Cc1c(N)sc2c(F)ccc(-c3c(C(F)(F)F)cc4c(N5CC6CCC(C5)N6)nc(OCC5CCCO5)nc4c3F)c12 (centres unmarked)
pIC50: 6.00 to 7.00
--
compound: N#Cc1c(N)sc2c(F)ccc(-c3c(C(F)(F)F)cc4c(N5CC6CCC(C5)N6)nc(OCC5CCS(=O)(=O)CC5)nc4c3F)c12
pIC50: 6.00 to 7.00
--
compound: CN(c1nc(OCC2CCOCC2)nc2c(F)c(-c3ccc(F)c4sc(N)c(C#N)c34)c(C(F)(F)F)cc12)[C@@H]1CCCNC1
pIC50: 5.00 to 6.00
--
compound: CNc1nc(N2CC3CCC(C2)N3)c2cc(C(F)(F)F)c(-c3ccc(F)c4sc(N)c(C#N)c34)c(F)c2n1
pIC50: 5.00 to 6.00
--
compound: C[C@@H]1CN(c2ncnc3c(F)c(-c4ccc(F)c5sc(N)c(C#N)c45)c(C(F)(F)F)cc23)[C@@H](C)CN1
pIC50: 5.00 to 6.00
--
compound: N#Cc1c(N)sc2c(F)ccc(-c3c(C(F)(F)F)cc4c(N5CC6CCC(C5)N6)nc(OC[C@@H]5COCCO5)nc4c3F)c12
pIC50: 5.00 to 6.00
--
compound: N#Cc1c(N)sc2c(F)ccc(-c3c(C(F)(F)F)cc4c(N5CC6CCC(C5)N6)nc(OCC5CCCOC5)nc4c3F)c12 (centres unmarked)
pIC50: 5.00 to 6.00
--
compound: N#Cc1c(N)sc2c(F)ccc(-c3c(C(F)(F)F)cc4c(N5CC6CCC(C5)N6)nc(N5CCC5)nc4c3F)c12
pIC50: 5.00 to 6.00
--
compound: N#Cc1c(N)sc2c(F)ccc(-c3c(C(F)(F)F)cc4c(N5CC6CCC(C5)N6)nc(N5CC[C@@H](O)C5)nc4c3F)c12
pIC50: 5.00 to 6.00
--
compound: CCCOc1nc(N2CC3CCC(C2)N3)c2cc(C(F)(F)F)c(-c3ccc(F)c4sc(N)c(C#N)c34)c(F)c2n1
pIC50: 5.00 to 6.00
--
compound: CC(=O)Nc1nc(N2CC3CCC(C2)N3)c2cc(C(F)(F)F)c(-c3ccc(F)c4sc(N)c(C#N)c34)c(F)c2n1
pIC50: 5.00 to 6.00
--
compound: COCCCOc1nc(N2CC3CCC(C2)N3)c2cc(C(F)(F)F)c(-c3ccc(F)c4sc(N)c(C#N)c34)c(F)c2n1
pIC50: 6.00 to 7.00
--
compound: CN1C(=O)CC[C@@H]1COc1nc(N2CC3CCC(C2)N3)c2cc(C(F)(F)F)c(-c3ccc(F)c4sc(N)c(C#N)c34)c(F)c2n1
pIC50: 6.00 to 7.00

###

- target.or.system: Avi-KRAS G12D (1-169) GppNHp/RAF1 RBD-3×FLAG (52-151) (Homo sapiens, UniProt P01116, G12D)
- Construct: 50 nM Avi-KRAS G12D (1-169) GppNHp/RAF1 RBD-3×FLAG (52-151)
- test.protocol: Disrupting RAS-effector binding HTRF assay, Raf1 RBD-KRAS G12D-GppNHp
- measurement.parameters: PPI HTRF, 50 nM Avi-KRAS G12D GppNHp, compound titration 30-0.0045 μM; read-out: Raf1 RBD-KRAS G12D-GppNHp disruption

compound: N#Cc1c(N)sc2c(F)ccc(-c3c(C(F)(F)F)cc4c(N5CC6CCC(C5)N6)nc(OCC5CC6CCC(C5)O6)nc4c3F)c12 (centres unmarked)
IC50: 1000 to 10000 nM
//
compound: COc1nc(N(C)[C@@H]2CCNC2)c2cc(C(F)(F)F)c(-c3ccc(F)c4sc(N)c(C#N)c34)c(F)c2n1
IC50: 1000 to 10000 nM
//
compound: N#Cc1c(N)sc2c(F)ccc(-c3c(C(F)(F)F)cc4c(N5CC6CCC(C5)N6)nc(OC[C@H]5CNC(=O)C5)nc4c3F)c12
IC50: 100 to 1000 nM
//
compound: N#Cc1c(N)sc2c(F)ccc(-c3c(C(F)(F)F)cc4c(N5CC6CCC(C5)N6)nc(N5CCCC5)nc4c3F)c12
IC50: 1000 to 10000 nM
//
compound: CN(c1nc(OCC2CCOCC2)nc2c(F)c(-c3ccc(F)c4sc(N)c(C#N)c34)c(C(F)(F)F)cc12)C1CCNCC1
IC50: 1000 to 10000 nM
//
compound: N#CCCOc1nc(N2CC3CCC(C2)N3)c2cc(C(F)(F)F)c(-c3ccc(F)c4sc(N)c(C#N)c34)c(F)c2n1
IC50: 1000 to 10000 nM
//
compound: N#Cc1c(N)sc2c(F)ccc(-c3c(C(F)(F)F)cc4c(N5CC6CCC(C5)N6)nc(N5CCNS(=O)(=O)CC5)nc4c3F)c12
IC50: 1000 to 10000 nM
//
compound: N#Cc1c(N)sc2c(F)ccc(-c3c(C(F)(F)F)cc4c(N5CC6CCC(C5)N6)nc(OCCO)nc4c3F)c12
IC50: 100 to 1000 nM
//
compound: N#Cc1c(N)sc2c(F)ccc(-c3c(C(F)(F)F)cc4c(N5C[C@H]6CC[C@@H](C5)N6)nc(OCC5CCOCC5)nc4c3F)c12
IC50: 100 to 1000 nM
//
compound: COc1nc(N2C[C@@H](C)NC[C@@H]2C)c2cc(C(F)(F)F)c(-c3ccc(F)c4sc(N)c(C#N)c34)c(F)c2n1
IC50: > 10000 nM
//
compound: N#Cc1c(N)sc2c(F)ccc(-c3c(C(F)(F)F)cc4c(N5CC6CCC(C5)N6)nc(OCC(CO)CO)nc4c3F)c12
IC50: 100 to 1000 nM
